Assay: NCI Yeast Anticancer Drug Screen. Data for the mec2-1 strain (AID 157)
Conditions: S. cerevisiae mec2-1 strain, at 50.0 µM, active compounds read high
Compounds without any hit were thinned out: in the full panel of roughly 79,000, 15% have a hit.
Grouping rule (growth inhibition): lower band: < 20%; central band: ≥ 20% and < 80%; upper band: ≥ 80%

[Q] Please report the category associated with CC(=O)NC1CCCCC1c1ccc(C2CCCCC2NC(C)=O)cc1 (stereo not given) , nothing else.
[A] lower band

More entries:
[Q] Please report the category associated with `S=c1c2ccccc2[nH]c2ccccc12` , nothing else.
[A] central band

[Q] Please report the category associated with CC(C)c1cc2c(cc1O)C(O)C1(O)CCCC(C)(C)[C@H]1CC2 (stereo not given in full) , nothing else.
[A] upper band

[Q] Please report the category associated with `Cn1c2c(c3nc(N)nc(N)c3c1=O)CCc1ccccc1-2` , nothing else.
[A] central band

[Q] Please report the category associated with `O=[N+]([O-])c1ccc(CSSCc2ccc([N+](=O)[O-])cc2)cc1` , nothing else.
[A] lower band

[Q] Please report the category associated with `C[CH2][Ge]([CH2]C)[CH2]C.C[CH2][Ge]([Cl])[CH2]C.C[CH2][Ge][CH2]C` , nothing else.
[A] upper band

[Q] Please report the category associated with CN1C(=O)C(Cl)(C(Cl)(Cl)S(=O)(=O)O)C(=O)c2ccccc21 (stereo not given) , nothing else.
[A] lower band

[Q] Please report the category associated with O=C1CSC(c2c[nH]c3ccccc23)N1c1cccc(Cl)c1 (stereo not given) , nothing else.
[A] upper band

[Q] Please report the category associated with `NS(=O)(=O)c1ccc(Nc2c3ccccc3nc3c(C(=O)NC(CO)(CO)CO)cccc23)cc1` , nothing else.
[A] lower band

---

Assay: NCI Yeast Anticancer Drug Screen. Data for the mlh1 rad18 strain (AID 175)
Conditions: S. cerevisiae mlh1 rad18 strain growth inhibition; at 50.0 µM; active compounds read high
This is part of a sample that, as a whole, favours compounds with a hit. Of some 79,000 tested, about 15% had one in any assay. Calls of active or inactive are those of the source. Cut-off read from the data, not from the text of the source: active = growth inhibition above about 70%; inactive = the rest.
Provide the reported growth inhibition of each item.

Consider the reported growth inhibition for these compounds:
Short answer for `CN1/C(=C/C=C/C(I)=C/C=C/C2=[N+](C)c3ccccc3C2(C)C)C(C)(C)c2ccccc21` : growth inhibition was 84.7% (active)

Short answer for `Cc1cc(C2c3ccccc3-c3ccccc32)cc(C)c1O` : growth inhibition was 98.5% (active)

Short answer for `O=C(O)/C=C/c1ccc2c(c1)CCCC2` : growth inhibition was 62.9% (inactive)

Short answer for `O=c1c2c3c(sc2nc2n1N=C(c1ccc(Br)cc1)CS2)CCCC3` : growth inhibition was -25.4% (inactive)

Short answer for O=C(O)C1C(=O)OC2CCCCC21 (stereo unspecified) : growth inhibition was -2.4% (inactive)

Short answer for CCCCCCCCCCCCCC/C(=C/OCC[N+](C)(C)C)OC(C)=O (tested in a mixture with another compound) : growth inhibition was 99.7% (active)

Short answer for `N#CC(CCCCl)(c1ccccc1)c1ccccc1` : growth inhibition was 92.2% (active)

Short answer for `O=C1c2ccccc2C(=O)c2c(NCCNCCO)ccc(O)c21` : growth inhibition was 85.8% (active)

Return reported growth inhibition values for all items listed beneath this line.
1. O=C(N/C(=C\c1ccc(Oc2ccc(Cl)c(Cl)c2)cc1)c1nc2ccccc2[nH]1)c1ccccc1
2. NS(=O)(=O)c1ccc(Nc2c3ccccc3nc3c(C(=O)NC(CO)(CO)CO)cccc23)cc1
3. CCN(C(C)=O)c1ccc2c(c1)Cc1ccccc1-2
4. COC(=O)c1cc2c(oc1=O)-c1ccccc1N(C=O)C2
5. ClC1=CC(Cl)=C2N=C(C(Cl)(Cl)Cl)N=C3N=C(C(Cl)(Cl)Cl)N=C1N32
6. O=C(Nc1ccc(C(=O)Nc2ccc3c(O)cc(S(=O)(=O)O)cc3c2)cc1)c1ccccc1
7. COC(=O)C1(NC(=O)C(CC(=O)OCc2ccccc2)NC(=O)OCc2ccccc2)CCCCCC1 (stereo unspecified)

[A]
1. 98.2% (active)
2. 15.9% (inactive)
3. 96.8% (active)
4. 2.1% (inactive)
5. 99% (active)
6. 47% (inactive)
7. 59.1% (inactive)
